test: NCI Yeast Anticancer Drug Screen. Data for the rad50 strain (AID 155);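 note: 0% = growth of vehicle-only cultures of the same strain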; settings: S. cerevisiae rad50 strain growth inhibition; at 50.0 µM; active compounds read high
This is part of a sample that, as a whole, favours compounds with a hit. Of some 79,000 tested, about 15% had one in any assay.
Hi there, I'd appreciate the recorded growth inhibition for every entry that follows.
Just the number please, in %, no unit attached.

Could you please provide reported growth inhibition for O=C(C(=Cn1c(=S)[nH]c2ccc([N+](=O)[O-])cc21)C(=O)c1ccccc1)c1ccccc1 ? Thanks!
98

Could you please provide reported growth inhibition for CN(C)C(=S)/N=c1\sn(C)/c(=N\C(=S)N(C)C)n1C ? Thanks!
-0.5

Could you please provide reported growth inhibition for CCN(CC)CCNc1ccc2nnn3c4ccccc4c(=O)c1c23 ? Thanks!
30.8

Could you please provide reported growth inhibition for CC1(C)c2ccccc2Cc2cc3ccccc3nc21 ? Thanks!
97.8

Could you please provide reported growth inhibition for Cc1cc(C)nc(NS(=O)(=O)c2ccc(Nc3nc(-c4cccc([N+](=O)[O-])c4)cs3)cc2)n1 ? Thanks!
23.1

Could you please provide reported growth inhibition for Cc1cc(O)ccc1N=Nc1ccccc1 ? Thanks!
99.7

Could you please provide reported growth inhibition for O=C1OC(c2ccc(O)cc2)=C(c2ccccc2)C1c1ccccc1 (stereo unspecified) ? Thanks!
99.4

Could you please provide reported growth inhibition for CN(C)C(=O)Nc1ccc(Cc2ccc(NC(=O)N(C)C)cc2)cc1 ? Thanks!
-3

Could you please provide reported growth inhibition for CCN(CC)CCC(=O)/C=C/c1ccc(Cl)c(Cl)c1 ? Thanks!
90

Could you please provide reported growth inhibition for Oc1ccc(Cc2ccccc2)cc1Cl ? Thanks!
47.5

Could you please provide reported growth inhibition for O=C1c2ccccc2C(=O)c2c1ccc(C(=O)O)c2-c1ccc2ccccc2c1 ? Thanks!
97.3
